viability, T/C reference
Tested on: 931267-113-T-J1-PDC multicell spheroid viability;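 note: viability read 7 days after compound addition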
Experiment: Anticancer human tumor 931267-113-T-J1-PDC patient-derived colon adenocarcinoma cell line growth inhibition [PI3K]
Conditions: second compound 0.00316 µM; first compound 0.1 µM; stronger effect = lower value
Give just the numeric value; % need not be written.

>>> readout_number("CCN1CCN(Cc2ccc(Nc3ncc(F)c(-c4cc(F)c5nc(C)n(C(C)C)c5c4)n3)nc2)CC1 + CC(Nc1ccc2c(c1)OCCn1cc(N3C(=O)OCC3C(F)F)nc1-2)C(N)=O")
108
>>> readout_number("C#Cc1c(F)ccc2cc(O)cc(-c3ncc4c(N5CC6CCC(C5)N6)nc(OCC56CCCN5CC(F)C6)nc4c3F)c12 (stereo unspecified) + COc1c(OCCCN2CCOCC2)ccc2c3n(c(=NC(=O)c4cnc(N)nc4)nc12)CCN3")
67.9
>>> readout_number("CC1(C)CCC(CN2CCN(c3ccc(C(=O)NS(=O)(=O)c4ccc(NCC5CCOCC5)c([N+](=O)[O-])c4)c(Oc4cnc5[nH]ccc5c4)c3)CC2)=C(c2ccc(Cl)cc2)C1 + COc1c(OCCCN2CCOCC2)ccc2c3n(c(=NC(=O)c4cnc(N)nc4)nc12)CCN3")
99.5
>>> readout_number("Cn1ncnc1[C@H]1c2n[nH]c(=O)c3cc(F)cc(c23)N[C@@H]1c1ccc(F)cc1 + COc1c(OCCCN2CCOCC2)ccc2c3n(c(=NC(=O)c4cnc(N)nc4)nc12)CCN3")
93.9
>>> readout_number("Cn1nccc1Nc1nccc(-c2ccn(C(CO)c3ccc(Cl)c(F)c3)c(=O)c2)n1 (stereo unspecified) + COc1c(OCCCN2CCOCC2)ccc2c3n(c(=NC(=O)c4cnc(N)nc4)nc12)CCN3")
82.3
>>> readout_number("Cn1ncnc1[C@H]1c2n[nH]c(=O)c3cc(F)cc(c23)N[C@@H]1c1ccc(F)cc1 + CC(Nc1ccc2c(c1)OCCn1cc(N3C(=O)OCC3C(F)F)nc1-2)C(N)=O")
102
>>> readout_number("CC(=O)c1c(C)c2cnc(Nc3ccc(N4CCNCC4)cn3)nc2n(C2CCCC2)c1=O + CC(Nc1ccc2c(c1)OCCn1cc(N3C(=O)OCC3C(F)F)nc1-2)C(N)=O")
99.8
>>> readout_number("C=CC(=O)N1CCN(c2nc(=O)n(-c3c(C)ccnc3C(C)C)c3nc(-c4c(O)cccc4F)c(F)cc23)C(C)C1 (stereo unspecified) + COc1c(OCCCN2CCOCC2)ccc2c3n(c(=NC(=O)c4cnc(N)nc4)nc12)CCN3")
107

Task: # get_value(readout='viability, T/C', item= C[C@@H](NC(=O)c1ncnc(N)c1Cl)c1ncc(C(=O)Nc2cc(C(F)(F)F)c(Cl)cn2)s1 + COc1c(OCCCN2CCOCC2)ccc2c3n(c(=NC(=O)c4cnc(N)nc4)nc12)CCN3 )
Result: 117

Task: # get_value(readout='viability, T/C', item= Cn1ncc(Cl)c1-c1cc(C(=O)NC(CN)Cc2cccc(F)c2)sc1Cl (stereo unspecified) + CC(Nc1ccc2c(c1)OCCn1cc(N3C(=O)OCC3C(F)F)nc1-2)C(N)=O )
Result: 102

Task: # get_value(readout='viability, T/C', item= CCN1CCN(Cc2ccc(Nc3ncc(F)c(-c4cc(F)c5nc(C)n(C(C)C)c5c4)n3)nc2)CC1 + COc1c(OCCCN2CCOCC2)ccc2c3n(c(=NC(=O)c4cnc(N)nc4)nc12)CCN3 )
Result: 98.7

Task: # get_value(readout='viability, T/C', item= C[C@@H](NC(=O)c1ncnc(N)c1Cl)c1ncc(C(=O)Nc2cc(C(F)(F)F)c(Cl)cn2)s1 + CC(Nc1ccc2c(c1)OCCn1cc(N3C(=O)OCC3C(F)F)nc1-2)C(N)=O )
Result: 129

Task: # get_value(readout='viability, T/C', item= C#Cc1c(F)ccc2cc(O)cc(-c3ncc4c(N5CC6CCC(C5)N6)nc(OCC56CCCN5CC(F)C6)nc4c3F)c12 (stereo unspecified) + CC(Nc1ccc2c(c1)OCCn1cc(N3C(=O)OCC3C(F)F)nc1-2)C(N)=O )
Result: 76.6
